The reported measurements were obtained from patent US20230235090A1.

studySystem: T1, mouse B7-H4 (mouse, UniProt Q7TSP5 25-257)
T1 construct: whole, on cells; also called CHO-K1/m B7-H4; CHO-K1/mB7-H4
T1 sequence (looked up): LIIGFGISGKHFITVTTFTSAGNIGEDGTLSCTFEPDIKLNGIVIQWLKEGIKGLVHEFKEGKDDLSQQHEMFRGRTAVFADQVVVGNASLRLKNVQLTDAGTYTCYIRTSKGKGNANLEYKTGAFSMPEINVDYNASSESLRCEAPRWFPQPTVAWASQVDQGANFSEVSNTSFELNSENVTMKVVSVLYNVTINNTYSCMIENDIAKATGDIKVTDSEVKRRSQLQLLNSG
procedureDetails: FACS, CHO-K1/m B7H4 cells [C]
EC50 for assorted binders
Form entry: value (nM) — number only.

Below are worked cases with known answers.
Prompt: Return reported EC50; argument: control antibody 1 (PR000157) (antibody, V domains shown, also called Positive control 1; 1D11.v1.9varC2) VH: EVQLVQSGAEVKKPGASVKVSCKASGYTFTSYWIGWVRQAPGQGLEWIGDIYPGGGYTNYNEKFKGRVTITRDTSTSTAYLELSSLRSEDTAVYYCARLAGSSYRGAMDSWGQGTLVTVSS VL: DIQMTQSPSSLSASVGDRVTITCKASQGFNKYVAWYQQKPGKAPKLLIYYTSTLQPGVPSRFSGSGSGRDYTLTISSLQPEDFATYYCLQYGDLLYAFGQGTKVEIKR
Response: 1.73

Prompt: Same for PR002037 (antibody, human IgG1, kappa, V domains shown, also called 1025_B-1H11 clone) VH: QVQLVQSGAEVKKPGSSMRVSCKASEDTFSSYAISWVRQAPGQGLEWMGGTAPIFGTTNYAQKFQGRVTITADKSTSTAYMELSSLRSEDTAVYYCARGGPYFDYWGQGTLVTVSS VL: EIVMTQSPASLSVSPGERATLSCRASQSVSSNLAWYQQKPGQAPRLLIYGASTRATGIPARVSGGGSGTEFTLTISSLQSEDFAVYCCQQYKNWPFTFGPGTKLEIKR
Response: 2.57

Prompt: Same for PR001476 (antibody, human IgG1, kappa, V domains shown, anti-B7-H4 H2L2 recombinant fully human antibody, human IgG1 / kappa; also called 80C8-2E9 clone) VH: QVQLVESGGGVVQPGRSLRLSCAASGFTFRSFGMHWVRQAPGKGLEWVAVISYDGSNEYYADSVKGRFIISRDNSKDTLYLQMNSLRAGDTAVYYCAKGGGLRWYFAYWGQGTLVTVSS VL: EIVMTQSPATLSVSPGERATLSCRASQSISSNLGWYQQKPGQAPRLLIYGASTRATGIPARFSGSGSGTEFTLTISSLQSEDFAVYYCQQYNSWPPLTFGGGTKVEIKR
Response: 3.61

Next:
Prompt: Return reported EC50; argument: PR002410 (antibody, human IgG1, kappa, V domains shown, anti-B7-H4 H2L2 recombinant fully human antibody, human IgG1 / kappa; also called PR002037 variant) VH: QVQLVQSGAEVKKPGSSMRVSCKASEDTFSSYAISWVRQAPGQGLEWMGGTAPIFGTTNYAQKFQGRVTITADKSTSTAYMELSSLRSEDTAVYYCARGGPYFDYWGQGTLVTVSS VL: EIVMTQSPASLSVSPGERATLSCRASQSVSSNLAWYQQKPGQAPRLLIYGASTRATGIPARVSGGGSGTEFTLTISSLQSEDFAVYYCQQYKNWPFTFGPGTKLEIKR
Response: 2.38
